B1: EEHEE_rd4_0363 (parent)
chain: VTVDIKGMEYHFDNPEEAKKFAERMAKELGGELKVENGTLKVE

variants of: B1; assay: folding stability dG (cDNA display proteolysis); higher = more stable; settings: PBS, room temperature
folding stability dG values, listed per item

RESIDUE_STRING | folding stability dG
VTVDIKGMEYHFDNPEEAKKFAERMAKELGGELKVENGTLKVR [E43R] | 2.04 kcal/mol
VTVDIKGMEYHFDNPEEAKFFAERMAKELGGELKVENGTLKVE [K20F] | 1.62 kcal/mol
VTVDIKGMENHFDNPEEAKKFAERMAKELGGELKVENGTLKVE [Y10N] | -0.275 kcal/mol
VTVDIKGMEYHFDNPEEAKKFAERMAKELGGELKVMNGTLKVE [E36M] | 1.84 kcal/mol
VTVDIEGMEYHFDNPEEAKKFAERMAKELGGELKVENGTLKVE [K6E] | 2.26 kcal/mol
VTVDIKGMEYLFDNPEEAKKFAERMAKELGGELKVENGTLKVE [H11L] | 1.55 kcal/mol
VDVDIKGMEYHFDNPEEAKKFAERMAKELGGELKVENGTLKVE [T2D] | 0.711 kcal/mol
VTVDIKGPEYHFDNPEEAKKFAERMAKELGGELKVENGTLKVE [M8P] | -0.136 kcal/mol
VTVDIKGMEVHFDNPEEAKKFAERMAKELGGELKVENGTLKVE [Y10V] | 0.768 kcal/mol
VTVDIKGMEYHFDNPEEAKKFAERMAKELGGELSVENGTLKVE [K34S] | 1.68 kcal/mol
VTVDIKGMEYHFDNPEVAKKFAERMAKELGGELKVENGTLKVE [E17V] | 1.17 kcal/mol
VTVDIKGMEYHFDNPEEAKKFAERMAKELGGELKVEKGTLKVE [N37K] | 1.45 kcal/mol
VTVDIKGMEYHFDNPEEAKKFSERMAKELGGELKVENGTLKVE [A22S] | 0.388 kcal/mol
VTVDIKGMEYHFDNPEEAKKFAERMAKELGGELKVENGTGKVE [L40G] | 0.861 kcal/mol
VTVDIKGMEYHFDNPEEAKKFAERMAKLLGGELKVENGTLKVE [E28L] | 2.34 kcal/mol
VTVDIKGMEYHFDNPEEAKKLAERMAKELGGELKVENGTLKVE [F21L] | -0.142 kcal/mol
VTVDIKGMEYHFDNPEEAKKFAERMAKELGGELKVENRTLKVE [G38R] | 0.518 kcal/mol
VTVDIKGMEYHFDNPEEAKKFAERMAKELGGELKVENGTLMVE [K41M] | 1.63 kcal/mol
VTVDIKGMEYHFDNPEEAKKFAERMAKEEGGELKVENGTLKVE [L29E] | 0.835 kcal/mol
VTVDIKGMEYHFDNPEEAKKFAERMAKELGGELKVENGTLKQE [V42Q] | 0.74 kcal/mol
VTVDIKGMEYHFDNPEEAKKFAERMAKHLGGELKVENGTLKVE [E28H] | 1.73 kcal/mol
VTVDTKGMEYHFDNPEEAKKFAERMAKELGGELKVENGTLKVE [I5T] | 0.201 kcal/mol
VTVDAKGMEYHFDNPEEAKKFAERMAKELGGELKVENGTLKVE [I5A] | 0.423 kcal/mol
VTVDIKGMEYHFDNPEHAKKFAERMAKELGGELKVENGTLKVE [E17H] | 1.2 kcal/mol
VTVDIKGYEYHFDNPEEAKKFAERMAKELGGELKVENGTLKVE [M8Y] | 2.06 kcal/mol
VTVDIKGMEPHFDNPEEAKKFAERMAKELGGELKVENGTLKVE [Y10P] | -0.055 kcal/mol
VTVDIKGMEYHFHNPEEAKKFAERMAKELGGELKVENGTLKVE [D13H] | 1.58 kcal/mol
